# SYSTEM TESTED: CCR9 (Homo sapiens (Human), UniProt P51686)
# Sequence (P51686 whole entry): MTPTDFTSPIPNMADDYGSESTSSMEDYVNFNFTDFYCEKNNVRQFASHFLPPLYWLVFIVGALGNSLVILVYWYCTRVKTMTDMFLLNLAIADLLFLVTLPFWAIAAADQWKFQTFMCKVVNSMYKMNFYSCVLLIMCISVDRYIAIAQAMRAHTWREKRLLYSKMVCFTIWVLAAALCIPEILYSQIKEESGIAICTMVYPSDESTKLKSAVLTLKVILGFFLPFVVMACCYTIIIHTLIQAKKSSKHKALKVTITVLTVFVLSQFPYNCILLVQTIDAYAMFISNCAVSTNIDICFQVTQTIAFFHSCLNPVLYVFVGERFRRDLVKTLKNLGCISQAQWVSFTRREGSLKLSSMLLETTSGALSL
# ASSAY SUMMARY: FLIPR calcium flux assay using MOLT4 cells, TECK stimulation
# Type: cell-based
# MEASUREMENT SETUP: MOLT4 cells (human T-cell line)
Overview of recorded pKi for various molecules
The read-out pKi is expressed as -log10 of concentration in moles per litre.

| COMPOUND SMILES | pKi |
| --- | --- |
| Cc1cnc(C)c(N2C(=O)c3c(Cl)ccc(NS(=O)(=O)c4ccc(C(C)(C)C)cc4)c3C2=O)c1 | 7.96 |
| O=C1c2c(Cl)ccc(NS(=O)(=O)c3ccc(C(F)(F)F)cc3)c2C(=O)N1c1cn[nH]c1 | 7.28 |
| Cc1ccc(N2C(=O)c3c(Cl)ccc(NS(=O)(=O)c4ccc(C(C)(C)C)cc4)c3C2=O)nn1 | 7.29 |

Ask | Note down pKi recorded for Cc1cccc(CN2C(=O)c3c(Cl)ccc(NS(=O)(=O)c4ccc(C(C)(C)C)cc4)c3C2=O)n1
Reply | 7.24

Ask | Note down pKi recorded for COc1cncc(N2C(=O)c3c(Cl)ccc(NS(=O)(=O)c4ccc(C(C)(C)C)cc4)c3C2=O)c1C
Reply | 7.74

Ask | Note down pKi recorded for COc1ccc(N2C(=O)c3c(Cl)ccc(NS(=O)(=O)c4ccc(C(C)(C)C)cc4)c3C2=O)c(OC)n1
Reply | 8.10

Ask | Note down pKi recorded for COc1cc(N2C(=O)c3c(Cl)ccc(NS(=O)(=O)c4ccc(C(C)(C)C)cc4)c3C2=O)c[n+]([O-])c1
Reply | 7.30

Ask | Note down pKi recorded for O=C1c2cccc(NS(=O)(=O)c3ccc(C(F)(F)F)cc3)c2C(=O)N1Cc1cccnc1
Reply | 6.12

Ask | Note down pKi recorded for COc1ccncc1N1C(=O)c2c(Cl)ccc(NS(=O)(=O)c3ccc(C(C)(C)C)cc3)c2C1=O
Reply | 8.70

Ask | Note down pKi recorded for COc1nccc(C)c1N1C(=O)c2c(Cl)ccc(NS(=O)(=O)c3ccc(C(C)(C)C)cc3)c2C1=O
Reply | 7.55

###

Overview of recorded Ki for various compounds
# SYSTEM TESTED: CCR9 (Homo sapiens (Human), UniProt P51686)
# ASSAY SUMMARY: FLIPR calcium flux assay using hCCR9 over expressed cells (Chem1-hCCR9), TECK stimulation
# Format: cell-based
# MEASUREMENT SETUP: Chem1-hCCR9 overexpressing cells
Answer with a number only, understood to be in nM.

Field: example entries. Status: answers known.
| COMPOUND SMILES | Ki, nM |
| --- | --- |
| Cc1cnc(N2C(=O)c3c(Cl)ccc(NS(=O)(=O)c4ccc(C(C)(C)C)cc4)c3C2=O)s1 | 39 |
| CC(C)(C)c1ccc(S(=O)(=O)Nc2ccc(Cl)c3c2C(=O)N(c2ccncn2)C3=O)cc1 | 60 |
| CC(C)(C)c1ccc(S(=O)(=O)Nc2ccc(C#N)c3c2C(=O)N(Cc2ccccn2)C3=O)cc1 | 17 |
| CC(C)(C)c1ccc(S(=O)(=O)Nc2ccc(Cl)c3c2C(=O)N(Cc2cccc(C#N)c2)C3=O)cc1 | 343 |
| Cc1ccnc(N2C(=O)c3c(Cl)ccc(NS(=O)(=O)c4ccc(C(C)(C)C)cc4)c3C2=O)n1 | 49 |

Ask | Note down Ki recorded for COc1c[n+]([O-])cc(N2C(=O)c3c(Cl)ccc(NS(=O)(=O)c4ccc(C(C)(C)C)cc4)c3C2=O)c1C
Reply | 54

Ask | Note down Ki recorded for Cc1c(N2C(=O)c3c(Cl)ccc(NS(=O)(=O)c4ccc(C(C)(C)C)cc4)c3C2=O)ccc[n+]1[O-]
Reply | 13

###

# SYSTEM TESTED: CCR9 (Homo sapiens (Human), UniProt P51686)
# ASSAY SUMMARY: FLIPR calcium flux assay using MOLT4 cells, TECK stimulation
# Format: cell-based
# MEASUREMENT SETUP: MOLT4 cells (human T-cell line)
READOUT KIND: Ki (µM)
Answer with a number only, understood to be in µM.

Field: example entries. Status: answers known.
| COMPOUND SMILES | Ki, µM |
| --- | --- |
| CC(C)(C)c1ccc(S(=O)(=O)Nc2ccc(Cl)c3c2C(=O)N(c2cccc(C#N)n2)C3=O)cc1 | 0.03 |
| CC(C)(C#N)c1ccc(S(=O)(=O)Nc2ccc(Cl)c3c2C(=O)N(Cc2cccnc2)C3=O)cc1 | 0.033 |
| CC(C)(C)c1ccc(S(=O)(=O)Nc2ccc(C#N)c3c2C(=O)N(Cc2cccnc2)C3=O)cc1 | 0.019 |

With those in mind, consider the next compound.
Ask | Look up CCR9 (Homo sapiens (Human), UniProt P51686) data: Ki of CC(C)(C)c1ccc(S(=O)(=O)Nc2ccc(Cl)c3c2C(=O)N(Cc2ccc[n+]([O-])c2)C3=O)cc1 , then report it.
Reply | 0.013

###

# SYSTEM TESTED: CCR9 (Homo sapiens (Human))
# ASSAY SUMMARY: FLIPR calcium flux assay using hCCR9 over expressed cells (Chem1-hCCR9), TECK stimulation
# Format: cell-based
# MEASUREMENT SETUP: Chem1-hCCR9 overexpressing cells
READOUT KIND: pKi
The read-out pKi is expressed as -log10 of concentration in moles per litre.

Field: example entries. Status: answers known.
| COMPOUND | pKi |
| --- | --- |
| COc1nccc(C)c1N1C(=O)c2c(Cl)ccc(NS(=O)(=O)c3ccc(C(C)(C)C)cc3)c2C1=O [Compound 237] | 8.05 |
| CC(C)(C)c1ccc(S(=O)(=O)Nc2ccc(Cl)c3c2C(=O)N(c2cccnc2F)C3=O)cc1 [Compound 218] | 7.59 |

Ask | Note down pKi recorded for Cn1cnc(N2C(=O)c3c(Cl)ccc(NS(=O)(=O)c4ccc(C(C)(C)C)cc4)c3C2=O)n1 [Compound 255]
Reply | 7.14

Ask | Note down pKi recorded for N#Cc1cccc(N2C(=O)c3c(Cl)ccc(NS(=O)(=O)c4ccc(C(F)(F)F)cc4)c3C2=O)c1 [Compound 121]
Reply | 6.47

###

# SYSTEM TESTED: CCR9 (Homo sapiens (Human))
# ASSAY SUMMARY: FLIPR calcium flux assay using hCCR9 over expressed cells (Chem1-hCCR9), TECK stimulation
# Format: cell-based
# MEASUREMENT SETUP: Chem1-hCCR9 overexpressing cells
READOUT KIND: pKi
The read-out pKi is expressed as -log10 of concentration in moles per litre.

Field: example entries. Status: answers known.
| COMPOUND SMILES | VALUE REPORTED |
| --- | --- |
| Cc1ccc(CN2C(=O)c3c(Cl)ccc(NS(=O)(=O)c4ccc(C(C)(C)C)cc4)c3C2=O)[n+]([O-])c1 | 7.35 |
| COC(=O)c1cc(N2C(=O)c3c(Cl)ccc(NS(=O)(=O)c4ccc(C(C)(C)C)cc4)c3C2=O)n(C)n1 | 7.82 |
| Cc1cnccc1N1C(=O)c2c(Cl)ccc(NS(=O)(=O)c3ccc(C(C)(C)C)cc3)c2C1=O | 8.52 |

Ask | Note down pKi recorded for Cc1ncccc1N1C(=O)c2c(Cl)ccc(NS(=O)(=O)c3ccc(C(C)(C)C)cc3)c2C1=O
Reply | 7.92

###

# SYSTEM TESTED: CCR9 (Homo sapiens (Human), UniProt P51686)
# ASSAY SUMMARY: FLIPR calcium flux assay using MOLT4 cells, TECK stimulation
# Format: cell-based
# MEASUREMENT SETUP: MOLT4 cells (human T-cell line)
# Procedure: Biological Activity: FLIPR Assay Using MOLT4 Cells A calcium flux assay was used to determine the ability of the compounds to interfere with the binding between CCR9 and its chemokine ligand (TECK) in MOLT4 cells (a human T-cell line). […] The increased in intracellular calcium levels was measured with the FLIPR instrument. The potency of the compound as CCR9 antagonist was calculated as an IC50 using GraphPad Prism software (variable slope four parameter). […]
pKi: −log10 of the molar value.
Returns y if the recorded pKi is greater than or equal to 7, and n otherwise.

Solved cases (5 shown):
| COMPOUND SMILES | GROUP |
| --- | --- |
| Cn1cnc(N2C(=O)c3c(Cl)ccc(NS(=O)(=O)c4ccc(C(C)(C)C)cc4)c3C2=O)c1 | y |
| Cn1ccc(CN2C(=O)c3c(Cl)ccc(NS(=O)(=O)c4ccc(C(C)(C)C)cc4)c3C2=O)n1 | y |
| N#Cc1cccc(N2C(=O)c3c(Cl)ccc(NS(=O)(=O)c4ccc(C(F)(F)F)cc4)c3C2=O)c1 | n |
| N#Cc1cccc(N2C(=O)c3cccc(NS(=O)(=O)c4ccc(C(F)(F)F)cc4)c3C2=O)c1 | n |
| Cc1c[n+]([O-])ccc1N1C(=O)c2c(Cl)ccc(NS(=O)(=O)c3ccc(C(C)(C)C)cc3)c2C1=O | y |

Ask | Does the reported pKi for Cc1cc[n+]([O-])cc1CN1C(=O)c2c(Cl)ccc(NS(=O)(=O)c3ccc(C(C)(C)C)cc3)c2C1=O fall at or above the 7 mark?
Reply | y

Ask | Does the reported pKi for COc1cc(C#N)cc(N2C(=O)c3c(Cl)ccc(NS(=O)(=O)c4ccc(C(C)(C)C)cc4)c3C2=O)c1 fall at or above the 7 mark?
Reply | y

Ask | Does the reported pKi for Cc1cccc(N2C(=O)c3c(Cl)ccc(NS(=O)(=O)c4ccc(C(C)(C)C)cc4)c3C2=O)n1 fall at or above the 7 mark?
Reply | y

Ask | Does the reported pKi for O=C1c2cccc(NS(=O)(=O)c3cccc(C(F)(F)F)c3)c2C(=O)N1c1cccnc1 fall at or above the 7 mark?
Reply | n

Ask | Does the reported pKi for Cn1cnc(N2C(=O)c3c(Cl)ccc(NS(=O)(=O)c4ccc(C(F)(F)F)cc4)c3C2=O)c1 fall at or above the 7 mark?
Reply | y

Ask | Does the reported pKi for CC(C)(C)c1ccc(S(=O)(=O)Nc2ccc(Cl)c3c2C(=O)N(c2ccc(F)nc2)C3=O)cc1 fall at or above the 7 mark?
Reply | y

Ask | Does the reported pKi for Cc1ccc(N2C(=O)c3c(Cl)ccc(NS(=O)(=O)c4ccc(C(C)(C)C)cc4)c3C2=O)[n+]([O-])c1 fall at or above the 7 mark?
Reply | y

Ask | Does the reported pKi for N#Cc1cccc(N2C(=O)c3c(Cl)ccc(NS(=O)(=O)c4ccc(OC(F)(F)F)cc4)c3C2=O)c1 fall at or above the 7 mark?
Reply | n
